- System: HS 578T breast
- Protocol summary: NCI tumour cell line growth inhibition, 48 h
Documented TGI across a set of compounds

Input: Suppose we examine the compound c1ccc2c3[nH]c(c2c1)=Nc1ccc(cc1)-c1nc2cc(ccc2o1)N=c1[nH]c(c2ccccc12)=Nc1ccc2nc(oc2c1)-c1ccc(cc1)N=3 ; what TGI value has been reported?
Output: > 100 µM

Input: Consider the compound O=C1CCCCC1CN1CCCCC1 (stereo not drawn) and give its measured TGI.
Output: > 100 µM

Input: # query: TGI of entry Nc1ccc(C2=NNC(=O)Cc3cc4c(cc32)OCCO4)cc1Cl
Output: 25 µM

Input: Consider the compound shown here: CC1(C)OC1COc1c2occc2cc2ccc(=O)oc12 (stereo not drawn) What is its recorded TGI?
Output: > 100 µM

Input: Returns the measured TGI for the input compound. Input: CCN(CC)C(=S)N/N=C/c1cc([N+](=O)[O-])ccc1O
Output: 95.7 µM

Input: Could you tell me which TGI is on file for CC1SC(c2ccc(F)cc2)N(NC(=O)C(O)c2ccccc2)C1=O (stereo not drawn) ?
Output: > 100 µM

Input: Given the entry COc1ccc(C2[C@@H](c3ccccc3)C(=O)N2c2cc(OC)c(OC)c(OC)c2)cc1F (stereo partly drawn) , report its measured TGI.
Output: 78.7 µM

Input: Entry under review: COc1ccc(-n2c(C)nc3ccc(NC(=S)Nc4ccccc4)cc3c2=O)cc1 . Reported TGI?
Output: > 100 µM

Input: # TGI lookup, item CC(=O)/C=C/C1=C(C)CCCC1(C)CC(C)C (stereo not drawn)
Output: > 100 µM

Input: Which TGI is reported for this compound? C(=C(c1ccc(OC2CCCCO2)cc1)c1ccc(OC2CCCCO2)cc1)c1ccccc1 (stereo not drawn)
Output: 4.44 µM

Input: Consider the compound Cc1cc(I)cc(CN(CCCN(C)C)C(C)C)c1O and give its measured TGI.
Output: 35.6 µM

Input: For the compound O=CNc1ccc2c(c1)C(=O)c1ccccc1-2 , what TGI is on record?
Output: > 100 µM

Input: Can you share its TGI? I mean this compound: Cc1ccc(NC(=O)c2ccc(OP(=O)(O)Nc3ccc(C)cc3)cc2)cc1
Output: > 100 µM

----------
- Test system: HOP-92 NSCLC
- Protocol summary: NCI tumour cell line growth inhibition, 48 h; in the data active = GI50 below about 0.43 µM; inactive = the rest
Please state which outcome applies, choosing from true for active, false for inactive

Reference set (6 entries):
INSERT INTO measurements (molecule, classification) VALUES
  ('COC[C@H]1Cn2cc(-c3nc(Nc4ccnn4C)ncc3C)nc2C(=O)N1Cc1ccc(F)c(F)c1', 'true'),
  ('CC1SC(c2ccc(F)cc2)N(NC(=O)C(O)c2ccccc2)C1=O (configuration not stated)', 'false'),
  ('COc1ccc(CN2C(=O)/C(=C\c3cc(OC)c(OC)c(OC)c3)c3ccccc32)cc1', 'false'),
  ('CCCCCCCCCCCCC(O)c1ccc(C#CCCCCCCCCCO)o1 (configuration not stated)', 'false'),
  ('Nc1cc(NN=C(c2ccc(O)cc2)c2ccc(O)cc2)c([N+](=O)[O-])cc1[N+](=O)[O-]', 'false'),
  ('CC(C)[C@@H]1C=C2CC[C@H]3[C@](C)(CN)CCC[C@]3(C)[C@H]2CC1', 'false');

Moving on to the next molecule.
Input: For CN(C)c1cc(NN=C(c2ccc(O)cc2)c2ccc(O)cc2)c([N+](=O)[O-])cc1[N+](=O)[O-] , which call appears in the assay record?
Output: false

----------
- System: HT29 colon
- Protocol summary: NCI tumour cell line growth inhibition, 48 h
Here, each record is paired with measured GI50 data.

Illustrative cases are given below, each with its answer.
INSERT INTO assay_data (compound, study_system, data_value) VALUES
  ('COC[C@H]1Cn2cc(-c3nc(Nc4ccnn4C)ncc3C)nc2C(=O)N1Cc1ccc(F)c(F)c1', 'HT29 colon', '0.0436 µM'),
  ('COc1ccc(C2[C@@H](c3ccccc3)C(=O)N2c2cc(OC)c(OC)c(OC)c2)cc1F (some centres undefined)', 'HT29 colon', '0.026 µM'),
  ('O=C(CCCSc1nc(-c2ccccc2)cc(-c2ccccc2)n1)NO', 'HT29 colon', '2.46 µM');

Input: I have this compound here, CCOC(=O)C1=C(C)N(c2ccc(F)cc2F)[C@]2(C#N)C(O)=C(Cl)C(Cl)=C(O)[C@]12C#N , and I need its recorded GI50.
Output: > 100 µM

Input: Item N#Cc1c[nH]n2c(N=Nc3ccc(Cl)cc3)c(O)nc12 has what recorded GI50?
Output: 50.2 µM

Input: # GI50 lookup, item CCN(C(=O)N1CCN(c2cc3c(cc2F)c(=O)c(C(=O)O)cn3C2CC2)CC1)c1nc(-c2ccc(Cl)cc2)cs1
Output: 1.06 µM

Input: Please look up its GI50: Cc1cc(I)cc(CN(CCCN(C)C)C(C)C)c1O
Output: 9.23 µM

Input: GI50 for COc1ccc(-c2cn[nH]c2-c2cc(OC)c(OC)c(OC)c2)cc1 ?
Output: 0.0258 µM

Input: Which GI50 is reported for this compound? O=C1C=C[C@@H](COC2OC(CO)C(O)C(O)C2O)O1 (some centres undefined)
Output: 1.62 µM

----------
- System: M14 melanoma
- Protocol summary: NCI tumour cell line growth inhibition, 48 h; in the data active = GI50 below about 0.43 µM; inactive = the rest
Form entry, call: pick from active, inactive

Illustrative cases are given below, each with its answer.
INSERT INTO measurements (compound, classification) VALUES
  ('CCN(C(=O)N1CCN(c2cc3c(cc2F)c(=O)c(C(=O)O)cn3C2CC2)CC1)c1nc(-c2ccc(Cl)cc2)cs1', 'inactive'),
  ('COC[C@H]1Cn2cc(-c3nc(Nc4ccnn4C)ncc3C)nc2C(=O)N1Cc1ccc(F)c(F)c1', 'active'),
  ('Cc1cc(I)cc(CN(CCCN(C)C)C(C)C)c1O', 'inactive');

Input: # lookup: test call for O=C(Nc1ccc(Oc2ccc(Nc3nc4ccccc4s3)cc2)cc1)Nc1ccc(Cl)c(C(F)(F)F)c1
Output: inactive

Input: For CCC(=C/[C@H](C)C/C=C/C(C)=C/[C@@H](C)C(=O)[C@@H](C)[C@H](O)[C@@H](C)CC)/C=C/[C@H]1OC(=O)C=C[C@@H]1C , which call appears in the assay record?
Output: active

Input: Kindly provide the recorded test outcome for the following compound: Nc1n[nH]c2cc(F)c([C@@H]3Nc4ccc5[nH]ncc5c4[C@H]4C5CCC(C5)[C@@H]34)cc12 (some centres undefined)
Output: active

Input: Given COc1ccc2nc3cc(Cl)ccc3c(NCCNCC(C)O)c2c1 (centres undefined) , state the outcome it received in this test.
Output: inactive

Input: Hi, do you know how Nc1cc(NN=C(c2ccc(O)cc2)c2ccc(O)cc2)c([N+](=O)[O-])cc1[N+](=O)[O-] came out in this test?
Output: inactive

Input: How was Cc1csc(-c2nnc(Nc3ccc(Oc4ncccc4-c4ccnc(N)n4)cc3)c3ccccc23)c1 classified in this test?
Output: inactive

----------
- Tested on: U251 CNS
Hi! Could you answer with just one of these? class 1 (active), class 0 (inactive)

Here are 5 compounds together with their reported answers.
INSERT INTO measurements (compound, classification) VALUES
  ('Cc1ccc(-n2c3nc(=O)[nH]c(=O)c-3cc3cc([N+](=O)[O-])ccc32)cc1', 'class 0'),
  ('CCCCCCCCCCn1cc[n+](C)c1', 'class 0'),
  ('COc1cc(-c2ccc3cc(OC)c(OC)c(OC)c3c2)cc(OC)c1OC', 'class 0'),
  ('COc1cccc(-c2nc(-c3ccc(NC(=O)OC(C)C)cc3)[nH]c2-c2ccnc(Br)c2)c1', 'class 0'),
  ('COc1ccc2nc(NC(=O)CSc3nnc4n3S(=O)(=O)c3ccccc3N4c3ccccc3)sc2c1', 'class 0');

Input: Fill in: this test's call for CCN(Cc1ccc(F)cc1)c1cc(Cl)c(CO)c(Cl)c1 is ___
Output: class 0

Input: Any idea what this test logged for Nc1n[nH]c2cc(F)c([C@@H]3Nc4ccc5[nH]ncc5c4[C@H]4C5CCC(C5)[C@@H]34)cc12 (stereo partly drawn) ?
Output: class 1

----------
- System: CCRF-CEM leukemia
- Protocol summary: NCI tumour cell line growth inhibition, 48 h; in the data active means GI50 below about 0.43 µM; inactive means the rest
Thanks in advance; please answer with one of these: active, inactive

Worked examples, 3 molecules total:
INSERT INTO assay_data (smiles_repr, classification) VALUES
  ('Cc1cc(I)cc(CN(CCCN(C)C)C(C)C)c1O', 'active'),
  ('O=C1c2cc3c(cc2-c2c1c1ccc(F)cc1c(=O)n2C[C@H](O)[C@@H](O)[C@H](O)CO)OCO3', 'active'),
  ('Cc1nnc(NC(=O)c2nc(S(=O)(=O)Cc3ccc(F)cc3)ncc2Cl)s1', 'inactive');

Input: Hello, I am checking results. What call was entered for COc1ccc2nc(NC(=O)CSc3nnc4n3S(=O)(=O)c3ccccc3N4c3ccccc3)sc2c1 ?
Output: inactive

Source of measurements: PubChem BioAssay (NCI)
